# Read-out: Intercellular Adhesion Molecule 1 (ICAM1), ICAM1 (gene 3383)
# ASSAY REMARKS: LTEA_HepaRG_ICAM1: Life Technologies and Expression Analysis (LTEA) Assay for Intercellular Adhesion Molecule 1 (ICAM1) using HepaRG (AID 2283507)
# MEASUREMENT CONTEXT: mRNA level, 48 h; actives raise or lower the signal
The source made the active and inactive calls. Rule for the calls: active = hit-call score of the fitted dose curve at least 0.9, where 1 is the maximum; inactive = score below 0.9.
// one of y (active), n (inactive), no free text

Previously resolved entries follow.
Asked: Which outcome was assigned to Cc1nccn1-c1ccc(Sc2cccc(C3(C(N)=O)CCOCC3)c2)cc1 in this test?
Given back: y

Asked: What would you report for CC(C)CCCCCCOC(=O)C1CCCCC1C(=O)OCCCCCCC(C)C (stereo unspecified) ?
Given back: n

Asked: What would you report for c1ccc2c(c1)-c1cccc3c1c-2cc1ccccc13 ?
Given back: n

Further cases:
Asked: Which outcome was assigned to c1ccc(C(O[C@@H]2CCCN(CCc3ccc4c(c3)OCO4)C2)c2ccccc2)cc1 in this test?
Given back: y

Asked: What would you report for CCCCN1C(=O)[C@@H]([C@H](O)C2CCCCC2)NC(=O)C12CCN(Cc1ccc(Oc3ccc(C(=O)O)cc3)cc1)CC2 ?
Given back: y

Asked: What would you report for Cn1cc[nH]c1=S ?
Given back: n

Asked: What would you report for OCCNCCO ?
Given back: n

Asked: What would you report for CCCC(CCC)C(=O)O ?
Given back: n

Asked: What would you report for Cc1ncc([C@@H](CCCCCCc2ccc3c(n2)NCCC3)CC(=O)O)cn1 ?
Given back: n

Asked: What would you report for CCCCCCOC(=O)CC(CC(=O)OCCCCCC)(OC(=O)CCC)C(=O)OCCCCCC ?
Given back: n

Asked: What would you report for CCCCC(CC)C(=O)OCCOCCOCCOC(=O)C(CC)CCCC (stereo unspecified) ?
Given back: n

###

# ASSAYED SYSTEM: human Caspase 4 (CASP4), CASP4 (gene 837) (UniProt P49662)
# Sequence (P49662 whole entry, looked up): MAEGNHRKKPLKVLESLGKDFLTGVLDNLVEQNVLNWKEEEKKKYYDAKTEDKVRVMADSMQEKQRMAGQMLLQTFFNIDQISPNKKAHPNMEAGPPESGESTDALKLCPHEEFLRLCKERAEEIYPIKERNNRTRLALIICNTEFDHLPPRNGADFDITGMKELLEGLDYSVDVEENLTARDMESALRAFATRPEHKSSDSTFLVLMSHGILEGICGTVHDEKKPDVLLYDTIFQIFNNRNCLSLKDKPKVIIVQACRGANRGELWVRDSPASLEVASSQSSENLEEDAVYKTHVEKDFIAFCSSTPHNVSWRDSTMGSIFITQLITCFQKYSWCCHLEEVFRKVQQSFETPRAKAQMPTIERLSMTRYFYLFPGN
# ASSAY REMARKS: NVS_ENZ_hCASP4: NovaScreen (NVS) Enzymatic Assay for human Caspase 4 (CASP4) (AID 2283143)
Records with an inconclusive call do not appear. Activity calls are given as the source filed them. The calls were made as follows: active = hit-call score of the fitted dose curve at least 0.9, where 1 is the maximum; inconclusive = response in the unintended direction; inactive = score below 0.9.
// one of active, inactive, no free text

Previously resolved entries follow.
Asked: Which outcome was assigned to CCCCCCCC/C=C\CCCCCCCC(=O)OC[C@@H](O)[C@H]1OC[C@H](O)[C@H]1O in this test?
Given back: inactive

Asked: What would you report for COc1cc2c(c(OC)c1OC)-c1ccc(OC)c(=O)cc1[C@@H](NC(C)=O)CC2 ?
Given back: active

Asked: What would you report for CC(C)C(=O)Nc1ccc([N+](=O)[O-])c(C(F)(F)F)c1 ?
Given back: inactive

Further cases:
Asked: Which outcome was assigned to CC(C)CC(C)O (centres undefined) in this test?
Given back: active

###

# ASSAY REMARKS: CCTE_Deisenroth_AIME_384WELL_CTox_Active: Cytotoxicity Assessment (CTOX) in CCTE's 384-well Estrogen Receptor Transactivation Assay with AIME metabolic competence (metabolism positive), Deisenroth Lab (AID 2284037);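 note: chemicals first conditioned 2 h by alginate-bound induced rat liver S9 before cells; activity means signal loss indicating cell death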
Records with an inconclusive call do not appear. Activity calls are given as the source filed them. Rule for the calls: active = hit-call score of the fitted dose curve at least 0.9, where 1 is the maximum; inconclusive = response in the unintended direction; inactive = score below 0.9.
// one of Yes for active, No for inactive, no free text

Asked: Which outcome was assigned to OCCOCCOCCO in this test?
Given back: No

Asked: What would you report for CCCCCOC(C)=O ?
Given back: No

Asked: What would you report for CCc1cccc(CC)c1N ?
Given back: No

Asked: What would you report for CCCCOC(=O)c1ccccc1 ?
Given back: No

Asked: What would you report for CCc1ccc(O)c(C(C)(C)C)c1 ?
Given back: No

Further cases:
Asked: Which outcome was assigned to NC(=O)NN=Cc1ccc([N+](=O)[O-])o1 in this test?
Given back: Yes

Asked: What would you report for OCc1ccccc1 ?
Given back: No

Asked: What would you report for c1ccc(C(O[C@@H]2CCCN(CCc3ccc4c(c3)OCO4)C2)c2ccccc2)cc1 ?
Given back: No

Asked: What would you report for COc1cc2c(c(OC)c1OC)-c1ccc(OC)c(=O)cc1[C@@H](NC(C)=O)CC2 ?
Given back: Yes

Asked: What would you report for C[C@@H](Oc1ccc(CNC(=O)c2cccnc2Oc2ccc3c(c2)OCO3)c(F)c1)C(=O)O ?
Given back: No

Asked: What would you report for O=C1CN(N=Cc2ccc([N+](=O)[O-])o2)C(=O)N1 ?
Given back: No
